measured target: T1, monkey GFRα3 expressed with a C-terminal myc-myc-hexahistidine tag (monkey (Mf), UniProt O60609 32-374 (human entry), limits assumed)
T1 construct: also called MfGFRα3-mmh; MfGFRα3-mmH
T1 chain: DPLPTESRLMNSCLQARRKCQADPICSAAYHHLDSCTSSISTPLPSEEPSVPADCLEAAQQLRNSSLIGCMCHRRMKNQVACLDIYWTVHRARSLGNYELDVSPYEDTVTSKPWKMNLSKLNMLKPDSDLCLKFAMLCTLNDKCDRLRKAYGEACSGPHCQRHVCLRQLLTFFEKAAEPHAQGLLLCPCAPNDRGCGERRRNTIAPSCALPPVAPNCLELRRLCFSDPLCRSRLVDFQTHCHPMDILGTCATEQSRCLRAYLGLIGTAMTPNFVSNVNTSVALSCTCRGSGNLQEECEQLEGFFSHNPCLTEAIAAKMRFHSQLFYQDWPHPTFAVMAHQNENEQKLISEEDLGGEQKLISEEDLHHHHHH
test description: SPR, Ab captured, 25C
# kon annotations
Express your answer in M⁻¹ s⁻¹, writing the number without its unit.

Check out these entries, answers already filled in.
{"columns": ["binder", "recorded number"],
 "data": [
  ["H4H2350P (antibody, human IgG4, V domains shown, human IgG4 Fc (H4H)) VH: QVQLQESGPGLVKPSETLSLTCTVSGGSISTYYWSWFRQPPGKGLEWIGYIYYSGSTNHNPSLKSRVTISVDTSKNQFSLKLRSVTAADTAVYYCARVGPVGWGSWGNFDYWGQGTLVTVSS VL: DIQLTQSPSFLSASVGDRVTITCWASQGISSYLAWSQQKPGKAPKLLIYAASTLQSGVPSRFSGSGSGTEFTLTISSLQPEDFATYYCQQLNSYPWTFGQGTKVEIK", 64700],
  ["H2aM2210N (antibody, mouse IgG2, V domains shown, chimeric, mouse IgG2 Fc (H2M/H2aM); also called H2M2210N) VH: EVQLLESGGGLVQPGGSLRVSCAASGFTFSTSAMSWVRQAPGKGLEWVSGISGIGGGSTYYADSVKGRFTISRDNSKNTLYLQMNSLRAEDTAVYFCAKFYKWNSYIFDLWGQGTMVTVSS VL: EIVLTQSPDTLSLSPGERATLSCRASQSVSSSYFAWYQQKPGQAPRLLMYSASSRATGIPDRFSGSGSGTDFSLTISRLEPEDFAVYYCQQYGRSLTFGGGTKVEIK", 41600]
]}

Briefly, kon measured for H4H2295S (antibody, human IgG4, V domains shown, human IgG4 Fc (H4H)) VH: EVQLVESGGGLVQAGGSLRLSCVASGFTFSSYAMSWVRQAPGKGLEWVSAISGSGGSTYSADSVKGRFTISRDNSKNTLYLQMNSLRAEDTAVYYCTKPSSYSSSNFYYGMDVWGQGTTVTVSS VL: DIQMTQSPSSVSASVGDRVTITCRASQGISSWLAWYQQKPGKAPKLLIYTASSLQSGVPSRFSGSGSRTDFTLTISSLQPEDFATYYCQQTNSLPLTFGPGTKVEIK : 183000

Hello, the source for this data is patent US20140056903A1, in case you need it.
